Let's look at some molecules and their measured Bliss excess.
# Test system: P12-ICHIKAWA (T-Lymphoblastic Leukemia);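 also: after 72 h of two-drug dosing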
# TEST_NAME: Bliss excess, mean over the matrix (fraction); higher = more synergy

{"MOLECULE": "CC(=O)c1c(C)c2cnc(Nc3ccc(N4CCNCC4)cn3)nc2n(C2CCCC2)c1=O [Palbociclib] + Cn1cnc2c(F)c(Nc3ccc(Br)cc3Cl)c(C(=O)NOCCO)cc21 [Selumetinib] (first compound max 10 µM, 7x7, partner max 10 µM)", "Bliss excess": 0.138}
{"MOLECULE": "C[C@@H](c1ccc2nccn2c1)n1nnc2ncc(-c3cnn(C)c3)nc21 [Savolitinib] + CN(CC[C@H](CSC1=CC=CC=C1)NC2=C(C=C(C=C2)S(=O)(=O)NC(=O)C3=CC=C(C=C3)N4CCC(CC4)[C@H](C5=CC=CC=C5C6=CC=C(C=C6)Cl)O)S(=O)(=O)C(F)(F)F)CCO [AZD4320] (first compound max 1 µM, 7x7, partner max 1 µM)", "Bliss excess": -0.0097}
{"MOLECULE": "Cc1c2c(nn1C)CSCc1cc(n(C)n1)CSc1cc(c3ccccc3c1)OCCCc1c(C(=O)O)n(C)c3c-2c(Cl)ccc13 [AZD5991] + C1CN(CCC1(C(=O)N[C@@H](CCO)C2=CC=C(C=C2)Cl)N)C3=NC=NC4=C3C=CN4 [Capivasertib] (first compound max 1 µM, 7x7, partner max 3 µM)", "Bliss excess": 0.039}
{"MOLECULE": "CN(CCO)CC[C@H](CSc1ccccc1)Nc1ccc(S(=O)(=O)NC(=O)c2ccc(N3CCC([C@@H](O)c4ccccc4-c4ccc(Cl)cc4)CC3)cc2)cc1S(=O)(=O)C(F)(F)F [AZD4320] + C[C@@H]1COCCN1C2=NC(=NC(=C2)C3(CC3)[S@](=N)(=O)C)C4=C5C=CNC5=NC=C4 [AZD6738] (first compound max 1 µM, 7x7, partner max 10 µM)", "Bliss excess": -0.0133}
{"MOLECULE": "CN(CCO)CC[C@H](CSc1ccccc1)Nc1ccc(S(=O)(=O)NC(=O)c2ccc(N3CCC([C@@H](O)c4ccccc4-c4ccc(Cl)cc4)CC3)cc2)cc1S(=O)(=O)C(F)(F)F [AZD4320] + C1CN(CCC1(C(=O)N[C@@H](CCO)C2=CC=C(C=C2)Cl)N)C3=NC=NC4=C3C=CN4 [Capivasertib] (first compound max 1 µM, 7x7, partner max 3 µM)", "Bliss excess": 0.0119}
{"MOLECULE": "Cc1c2c(nn1C)CSCc1cc(n(C)n1)CSc1cc(c3ccccc3c1)OCCCc1c(C(=O)O)n(C)c3c-2c(Cl)ccc13 [AZD5991] + Cc1cc2ncnn2cc1Nc1ncc2c(n1)n(C1CCOCC1)c(=O)n2C [AZD7648] (first compound max 1 µM, 7x7, partner max 10 µM)", "Bliss excess": -0.0167}
{"MOLECULE": "NC1(C(=O)N[C@@H](CCO)c2ccc(Cl)cc2)CCN(c2ncnc3[nH]ccc23)CC1 [Capivasertib] + CCN(CCO)CCCOc1ccc2c(Nc3cc(CC(=O)Nc4cccc(F)c4)[nH]n3)ncnc2c1 [AZD2811] (first compound max 10 µM, 7x7, partner max 1 µM)", "Bliss excess": -0.014}
{"MOLECULE": "CC1(C)CCC(CN2CCN(c3ccc(C(=O)NS(=O)(=O)c4ccc(NCC5CCOCC5)c([N+](=O)[O-])c4)c(Oc4cnc5[nH]ccc5c4)c3)CC2)=C(c2ccc(Cl)cc2)C1 [Venetoclax] + C[C@@H](Nc1cc(F)cc(F)c1)c1cc(C(=O)N(C)C)cc2c(=O)cc(N3CCOCC3)oc12 [AZD8186] (first compound max 1 µM, 7x7, partner max 3 µM)", "Bliss excess": -0.0097}
{"MOLECULE": "C=CCn1c(=O)c2cnc(Nc3ccc(N4CCN(C)CC4)cc3)nc2n1-c1cccc(C(C)(C)O)n1 [AZD1775] + C1CN(CCC1(C(=O)N[C@@H](CCO)C2=CC=C(C=C2)Cl)N)C3=NC=NC4=C3C=CN4 [Capivasertib] (first compound max 3 µM, partner max 3 µM)", "Bliss excess": 0.0076}
{"MOLECULE": "COc1nnc2ccc(N3CCC(c4ccc(OCCN5CCN(C)C(=O)[C@H]5C)cc4)CC3)nn12 [AZD5153] + Cn1cnc2c(F)c(Nc3ccc(Br)cc3Cl)c(C(=O)NOCCO)cc21 [Selumetinib] (first compound max 1 µM, 7x7, partner max 10 µM)", "Bliss excess": 0.0746}
{"MOLECULE": "CC1(C)CCC(CN2CCN(c3ccc(C(=O)NS(=O)(=O)c4ccc(NCC5CCOCC5)c([N+](=O)[O-])c4)c(Oc4cnc5[nH]ccc5c4)c3)CC2)=C(c2ccc(Cl)cc2)C1 [Venetoclax] + CN(C)CCCOc1ccc(-c2ccc3ncc4c(c3c2)n(C2CCOCC2)c(=O)n4C)cn1 [AZD0156] (first compound max 1 µM, 7x7, partner max 1 µM)", "Bliss excess": 0.0509}
{"MOLECULE": "CN(C)CCCOc1ccc(-c2ccc3ncc4c(c3c2)n(C2CCOCC2)c(=O)n4C)cn1 [AZD0156] + O=C(c1cc(Cc2n[nH]c(=O)c3ccccc23)ccc1F)N1CCN(C(=O)C2CC2)CC1 [Olaparib] (first compound max 3 µM, partner max 3 µM)", "Bliss excess": 0.191}
{"MOLECULE": "COc1nnc2ccc(N3CCC(c4ccc(OCCN5CCN(C)C(=O)[C@H]5C)cc4)CC3)nn12 [AZD5153] + CN(CC[C@H](CSC1=CC=CC=C1)NC2=C(C=C(C=C2)S(=O)(=O)NC(=O)C3=CC=C(C=C3)N4CCC(CC4)[C@H](C5=CC=CC=C5C6=CC=C(C=C6)Cl)O)S(=O)(=O)C(F)(F)F)CCO [AZD4320] (first compound max 1 µM, 7x7, partner max 1 µM)", "Bliss excess": 0.0283}

Entry source: the supplement of paper PMC11061612
